Biological target: Furin (108-574-Tev-Flag-His) enzyme (Homo sapiens)
Construct: Furin (108-574-Tev-Flag-His) enzyme was expressed and purified from CHO cells; TEV cleavage site (C); FLAG (C); His (C); made in house; host or cells: CHO cells
Experiment: Furin enzyme assay
Type: biochemical
Param threshold (9) applies to furin enzyme pIC50; output met when value >= threshold, not met when value < threshold.

q: Does CC(=O)NCC1CCN(Cc2cc(Oc3ccc(N4CCCNCC4)nc3)nc(-c3cc(Cl)cc(Cl)c3)c2)CC1 have a reported furin enzyme pIC50 of at least 9?
a: met

q: Does CC(O)CCN1CCN(c2ncc(Oc3cc(CN4CCC(CC(=O)O)CC4)cc(-c4cc(Cl)cc(Cl)c4)n3)cn2)CC1 (stereo not drawn) have a reported furin enzyme pIC50 of at least 9?
a: not met

q: Does CNC(=O)NCC1CCN(Cc2cc(Oc3cnc(N4CCN(C[C@@H](C)O)CC4)nc3)nc(-c3cc(Cl)cc(Cl)c3)c2)CC1 have a reported furin enzyme pIC50 of at least 9?
a: met

q: Does CC(CCN1CCN(c2ncc(Oc3cc(CN4CC[C@@H]5[C@H](CC4)[C@H]5NS(C)(=O)=O)cc(-c4cc(Cl)cc(Cl)c4)n3)cn2)CC1)C(=O)O (stereo partly drawn) have a reported furin enzyme pIC50 of at least 9?
a: met

q: Does CC(CCN1CCN(c2ncc(Oc3cc(CN4CCC(CC(=O)O)CC4)cc(-c4cc(Cl)cc(Cl)c4)n3)cn2)CC1)S(C)(=O)=O (stereo not drawn) have a reported furin enzyme pIC50 of at least 9?
a: not met

q: Does CS(=O)(=O)CCCN1CCN(c2ncc(Oc3cc(CN4CCC(CC(=O)O)CC4)cc(-c4cc(Cl)cc(Cl)c4)n3)cn2)CC1 have a reported furin enzyme pIC50 of at least 9?
a: not met

q: Does COC(=O)CCN1CCN(c2ccc(Oc3cc(CN4CCC(CNC(C)=O)CC4)cc(-c4cc(Cl)cc(Cl)c4)n3)cn2)CC1 have a reported furin enzyme pIC50 of at least 9?
a: not met

----------
For each entry below, report its log10(EC50) value.
Molecular target: furin (endogenous protease) in U20S cells (Homo sapiens, UniProt P09958)
Construct: the endogenous protease cleaves GFP; endogenous in cells; host or cells: U2OS cells transduced with a BacMam reporter
Sequence (P09958 108-794): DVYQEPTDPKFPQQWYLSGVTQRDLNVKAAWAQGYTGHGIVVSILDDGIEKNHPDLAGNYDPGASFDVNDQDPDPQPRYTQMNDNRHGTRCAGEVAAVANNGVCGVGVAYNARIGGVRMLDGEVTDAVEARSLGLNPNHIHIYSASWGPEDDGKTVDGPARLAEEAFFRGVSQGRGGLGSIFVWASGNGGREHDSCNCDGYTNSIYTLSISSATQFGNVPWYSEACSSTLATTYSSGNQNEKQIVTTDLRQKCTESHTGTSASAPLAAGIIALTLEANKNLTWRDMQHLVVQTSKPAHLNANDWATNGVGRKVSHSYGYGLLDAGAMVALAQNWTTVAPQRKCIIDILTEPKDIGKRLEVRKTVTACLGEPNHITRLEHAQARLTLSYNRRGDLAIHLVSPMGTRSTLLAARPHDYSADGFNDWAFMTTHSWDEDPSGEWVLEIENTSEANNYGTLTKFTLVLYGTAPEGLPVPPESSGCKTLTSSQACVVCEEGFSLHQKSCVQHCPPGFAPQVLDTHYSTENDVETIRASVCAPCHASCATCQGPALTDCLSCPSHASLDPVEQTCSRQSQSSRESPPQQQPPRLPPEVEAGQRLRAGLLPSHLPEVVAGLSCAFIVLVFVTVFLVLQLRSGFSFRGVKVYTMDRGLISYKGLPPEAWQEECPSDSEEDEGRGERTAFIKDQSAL
Experiment: Furin cell-based assay (image-based, Golgi-targeted GFP with BMP10 furin/PCSK cleavage site)
Details: 24-hour incubation, read-out: furin golgi cell pXC50 (converted)
Structures can show the parent of a compound that is named as a salt.
// do not treat as linear: log10 of EC50, unit nM

q: For the molecule CC(=O)NCC1CCN(Cc2cc(Oc3ccc(N4CCNCC4)nc3)nc(-c3cc(Cl)cc(Cl)c3)c2)CC1 [Example 9, hydrochloride] , report log10(EC50).
a: 0.90

q: For the molecule CC(=O)NCC1CCN(Cc2cc(Oc3ccc(N4C[C@@H]5C[C@H]4CN5CCS(C)(=O)=O)nc3)nc(-c3cc(Cl)cc(Cl)c3)c2)CC1 , report log10(EC50).
a: 1.10

q: For the molecule CNCc1cc(Oc2ccc(N3CCNCC3)nc2)cc(-c2cc(Cl)cc(Cl)c2)c1 [Example 98, hydrochloride] , report log10(EC50).
a: 1.60

q: For the molecule C[C@@H](CC1CCN(Cc2cc(Oc3ccc(N4CCN(C)CC4)nn3)nc(-c3cc(Cl)cc(Cl)c3)c2)CC1)C(=O)O , report log10(EC50).
a: 2.10

q: For the molecule CNC(=O)NCC1CCN(Cc2cc(Oc3ccc(N4CCN(C)CC4)nc3)nc(-c3cc(Cl)cc(Cl)c3)c2)CC1 , report log10(EC50).
a: 0.70

----------
Biological target: furin (endogenous protease) in U20S cells (Homo sapiens, UniProt P09958)
Construct: the endogenous protease cleaves GFP; endogenous in cells; host or cells: U2OS cells transduced with a BacMam reporter
Assay: Furin cell-based assay (image-based, Golgi-targeted GFP with BMP10 furin/PCSK cleavage site);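 also: Read-out is mean GFP fluorescence of Golgi puncta per cell by high-content imaging, retained when furin inhibited, over an eleven-point 0.00017–10 µM series, four-parameter fit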
Settings: 24-hour incubation, read-out: furin golgi cell pXC50 (converted)
observedProperty: EC50 (nM)
Quick note: give the figure in nM, leave out the unit.

q: For the molecule CC(=O)NCC1CCN(Cc2cc(Oc3ccc(N4CCN([C@H]5C[C@H](NS(C)(=O)=O)C5)CC4)nc3)nc(-c3cc(Cl)cc(Cl)c3)c2)CC1 , report EC50.
a: 1.58

q: For the molecule NS(=O)(=O)CCCN1CCN(c2ncc(Oc3cc(CN4CCC(CC(=O)O)CC4)cc(-c4cc(Cl)cc(Cl)c4)n3)cn2)CC1 , report EC50.
a: 15.8

q: For the molecule C[C@]1(O)C[C@H](N2CCN(c3ncc(Oc4cc(CN5CCC(CC(=O)O)CC5)cc(-c5cc(Cl)cc(Cl)c5)n4)cn3)CC2)C1 , report EC50.
a: 12.6

q: For the molecule C[C@@H](CC1CCN(Cc2cc(Oc3cnc(N4CCN(C)CC4)nc3)nc(-c3cc(Cl)cc(Cl)c3)c2)CC1)C(=O)O , report EC50.
a: 25.1

q: For the molecule CC(=O)NCC1CCN(Cc2cc(Oc3ccc(N4CCN(CCC(=O)O)C(C)(C)C4)nc3)nc(-c3cc(Cl)cc(Cl)c3)c2)CC1 , report EC50.
a: 39.8

q: For the molecule CC(CC1CCN(Cc2cc(Oc3ccc(N4CCN(C)CC4)nc3)nc(-c3cc(Cl)cc(Cl)c3)c2)CC1)C(=O)O (stereo not drawn) , report EC50.
a: 25.1

q: For the molecule CC(=O)NCC1CCN(Cc2cc(Oc3ccc(N4CC[N+](C)(C)CC4)nc3)nc(-c3cc(Cl)cc(Cl)c3)c2)CC1.[Cl-] , report EC50.
a: 79.4

q: For the molecule NC1CCN(c2ncc(Oc3cc(CN4CCC(CC(=O)O)CC4)cc(-c4cc(Cl)cc(Cl)c4)n3)cn2)CC1 , report EC50.
a: 79.4

q: For the molecule CNC(=O)OCC1CCN(Cc2cc(Oc3ccc(N4CCN(C)CC4)nc3)nc(-c3cc(Cl)cc(Cl)c3)c2)CC1 , report EC50.
a: 12.6

----------
Target: Furin (108-574-Tev-Flag-His) enzyme (Homo sapiens)
Construct: Furin (108-574-Tev-Flag-His) enzyme was expressed and purified from CHO cells; TEV cleavage site (C); FLAG (C); His (C); made in house; host or cells: CHO cells
Experiment: Furin enzyme assay
Type: biochemical
Where a name gives a salt, the structure may show the parent alone.
observedProperty: furin enzyme pIC50

q: For the molecule CN1CCN(c2ncc(Oc3cc(CN4CCC(CCS(N)(=O)=O)CC4)cc(-c4cc(Cl)cc(Cl)c4)n3)cn2)CC1 [Example 87, hydrochloride] , report furin enzyme pIC50.
a: 9

q: For the molecule CC(CC(=O)O)C1CN(Cc2cc(Oc3cnc(N4CCN(C)CC4)nc3)nc(-c3cc(Cl)cc(Cl)c3)c2)C1 (centres unmarked) , report furin enzyme pIC50.
a: 8.8

q: For the molecule CC(=O)NCC1(O)CCN(Cc2cc(Oc3ccc(N4CCNCC4)nc3)nc(-c3cc(Cl)cc(Cl)c3)c2)CC1 , report furin enzyme pIC50.
a: 8.8

q: For the molecule CNC(=O)NCC1CCN(Cc2cc(Oc3cnc(N4CCN(C)CC4)cn3)nc(-c3cc(Cl)cc(Cl)c3)c2)CC1 , report furin enzyme pIC50.
a: 9

q: For the molecule CCNC(=O)CC1CCN(Cc2cc(Oc3ccc(N4CCN(CCCS(C)(=O)=O)CC4)nc3)nc(-c3cc(Cl)cc(Cl)c3)c2)CC1 , report furin enzyme pIC50.
a: 9
